system: MEF A1-2A-BIM cells, caspase 3/7 luminescence, 3 h; assay: inducers of caspase signal in A1-dependent MEFs – cell-based, luminescence, retest, A1 inhibitor project, dose response (AID 2765)
Calls of active or inactive are those of the source.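 The calls were made as follows: active = half-maximal concentration for the rise in caspase light signal at or below ten times the top tested dose; inconclusive = flat fit between 30% and 70% activity, or unreliable curve fit; inactive = the rest.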
Outcomes: true = active, false = inactive

# molecule, labelValue
measured = [
    ("Cc1noc(NS(=O)(=O)c2ccc(NC(=O)c3ccccc3NS(=O)(=O)c3ccc(F)cc3)cc2)c1C", "false"),
    ("CC1CCc2c(sc3nc(C(C)(C)C)nc(N4CCN(C(=O)CCl)CC4)c23)C1 (stereo unspecified)", "true"),
    ("O=C(NC(Cc1ccccc1)C(=O)N1CCCCCC1)c1ccccc1 (stereo unspecified)", "false"),
    ("CCS(=O)(=O)c1ncc(Cl)c(C(=O)Nc2ccccc2OC)n1", "false"),
    ("COc1cc2cnc(-c3ccccc3)c(-c3cccc(C(F)(F)F)c3)c2cc1OC", "false"),
    ("CC(=O)Nc1ccc([N+](=O)[O-])c(CS(=O)(=O)c2ccc(C)cc2)c1[N+](=O)[O-]", "false"),
    ("Cc1ccccc1/C=C/C(=O)c1ccc([N+](=O)[O-])o1", "false"),
    ("COc1ccc(NC(=O)c2oc3ccccc3c2NC(=O)C2CC2)cc1", "false"),
    ("O=C(CSc1nccc(=O)[nH]1)Nc1ccccc1Sc1ccccc1", "false"),
    ("COc1ccc(CCNC(=O)C2=COCCO2)cc1", "false"),
    ("CCOc1ccc(CNC2CCCCCCC2)cc1OC", "false"),
]

---

tested on: MEF A1-2A-BIM cells, caspase 3/7 luminescence, 3 h; test: inducers of caspase signal in A1-dependent MEFs – cell-based, luminescence, retest, A1 inhibitor project, dose response (AID 2765)
Active and inactive are the calls of the source.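 How the source made its calls: active means half-maximal concentration for the rise in caspase light signal at or below ten times the top tested dose; inconclusive means flat fit between 30% and 70% activity, or unreliable curve fit; inactive means the rest.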
Outcome codes: active, inactive

# compound, labelValue
rows = [
    ("CC1Cc2ccccc2N1C(=O)C1CCN(S(=O)(=O)Cc2ccccc2)CC1 (stereo not drawn)", "inactive"),
    ("COc1ccc(S(=O)(=O)NC2CCCC2)cc1C(N)=O", "inactive"),
    ("NC(=O)OCCCc1ccccc1", "inactive"),
    ("COc1ccc(S(=O)(=O)N2CC(O)CC2C(=O)OCC(=O)Nc2ccc(Cl)cn2)cc1 (stereo not drawn)", "inactive"),
    ("CCOC(=O)COc1ccccc1/C=C\\[N+](=O)[O-]", "active"),
    ("Cc1cc(/C=C(/C#N)C(=O)O)c(C)n1-c1cccc2ccccc12", "inactive"),
    ("N#Cc1cccnc1N1CCN(C(=O)c2cccc3c2C(=O)c2ccc(-c4ccc(Cl)c(C(F)(F)F)c4)cc2S3(=O)=O)CC1", "inactive"),
    ("CCOc1cc(/C=C\\[N+](=O)[O-])ccc1OCC(=O)Nc1ccccc1C", "active"),
    ("NC(=S)NNC(=O)/C(=C/c1ccc(Br)cc1)NC(=O)c1ccccc1", "inactive"),
    ("COc1ccc(C)cc1S(=O)(=O)n1cnc2ccccc21", "inactive"),
    ("COC(=O)c1ccc(NC(=O)C2CC(=O)N(c3ccc(C)cc3)C2)cc1 (stereo not drawn)", "inactive"),
    ("Cc1ccc(Cl)cc1NC(=O)CC1NC2CCCCC2NC1=O (stereo not drawn)", "inactive"),
    ("Cc1ccc(OCC(O)CN2CCN(CCO)CC2)c(C)c1 (stereo not drawn)", "inactive"),
]
